# System: Streptococcus pneumoniae 1/1
# method: MIC against Streptococcus pneumoniae 1/1
# Format: cell-based
# condition info: Table 1; Streptococcus pneumoniae 1/1, trimethoprim- and penicillin-resistant, serotype 6; clinical isolate; read-out: MIC Sp1/1
metric name: MIC

Some solved cases for reference:
CCOc1cc(Cc2cnc(N)nc2N)cc(OS(=O)(=O)C2CCC2)c1-c1ccc(N)c(C)c1 [Example 40c]; 0.5 µg/mL
CCOc1cc(Cc2cnc(N)nc2N)cc(OCC)c1-c1cccc(N)c1; 4 µg/mL
CCOc1cc(Cc2cnc(N)nc2N)cc(OS(=O)(=O)C(C)CC)c1-c1cccc(N)c1 (stereo not shown) [Example 14g]; 1 µg/mL

Give the measured MIC of CCOc1cc(Cc2cnc(N)nc2N)cc(OS(=O)(=O)N(C)C2CC2)c1-c1ccc(N)cc1 [Example 22e] .
1 µg/mL

Please do the same for CCOc1cc(Cc2cnc(N)nc2N)cc(OS(=O)(=O)C(C)C)c1-c1ccc(N)c(C)c1 [Example 33e] as well.
1 µg/mL

Can you handle CCOc1cc(Cc2cnc(N)nc2N)cc(OS(=O)(=O)C(C)C)c1-c1cccc(N)c1 [Example 14c] next?
1 µg/mL

Try the molecule CCOc1cc(Cc2cnc(N)nc2N)cc(OS(=O)(=O)N2CCOCC2)c1-c1ccc(NC)cc1 [Example 26c]
0.5 µg/mL

Same for CCOc1cc(Cc2cnc(N)nc2N)cc(OS(=O)(=O)C(C)CC)c1-c1ccc(N)cc1 (stereo not shown) [Example 35a]
0.5 µg/mL

Subsequent entry: CCOc1cc(Cc2cnc(N)nc2N)cc(OS(=O)(=O)N(C)C)c1-c1ccc(C)c(N)c1 [Example 31a]
1 µg/mL

Follow-up item: CCOc1cc(Cc2cnc(N)nc2N)cc(OCC)c1-n1cccc1 [Epiroprim, reference compound]
4 µg/mL

Param item: CCOc1cc(Cc2cnc(N)nc2N)cc(OS(=O)(=O)C(C)C)c1-c1ccc(N)cc1
1 µg/mL

Consider next the molecule COc1cc(Cc2cnc(N)nc2N)cc(OC)c1OC [Trimethoprim, reference compound] in the same way.
> 32 µg/mL

Now consider CCOc1cc(Cc2cnc(N)nc2N)cc(OS(=O)(=O)C(C)CC)c1-c1ccc(N)c(C)c1 (stereo not shown) [Example 35e] and answer again.
0.5 µg/mL

----------
# System: Staphylococcus aureus 101
# method: MIC against Staphylococcus aureus 101
# Assay type: cell-based
# condition info: Table 2; Staphylococcus aureus 101, MRSA- and trimethoprim-resistant; clinical isolate; read-out: MIC Sa101
metric name: MIC (µg/mL)
# number only, unit µg/mL dropped from output

Given the entry CCOc1cc(Cc2cnc(N)nc2N)cc(OS(=O)(=O)CC(C)C)c1-c1ccc(OCCO)cc1 , what MIC was observed with Staphylococcus aureus 101?
2

----------
# Tested on: Staphylococcus aureus 101
# method: MIC against Staphylococcus aureus 101
# Assay type: cell-based
# condition info: Table 2; Staphylococcus aureus 101, MRSA- and trimethoprim-resistant; clinical isolate
Listed below: MIC Sa101 values for each entry.
Number only, in µg/mL; omit the unit.

CCCS(=O)(=O)Oc1cc(Cc2cnc(N)nc2N)cc(OCC)c1-c1cc(N)cc(F)c1 [Example 32-f]; 4
CCOc1cc(Cc2cnc(N)nc2N)cc(OS(=O)(=O)C(C)C)c1-c1ccc(CN2CCOCC2)c(N)c1 [Example 33-d]; 2
CCCS(=O)(=O)Oc1cc(Cc2cnc(N)nc2N)cc(OCC)c1-c1ccc(CN(C)C)c(N)c1 [Example 32-g]; 8
CCOc1cc(Cc2cnc(N)nc2N)cc(O[C@@H]2CCC[C@H]2CC#N)c1-c1ccc(O)cc1 (racemic) [Example 08-u]; 8
CCOc1cc(Cc2cnc(N)nc2N)cc(OS(=O)(=O)CC(C)(C)OC)c1-c1ccc(CN2CCOCC2)c(N)c1 [Example 39-d]; 8

Tell me the measured MIC Sa101 of CCCS(=O)(=O)Oc1cc(Cc2cnc(N)nc2N)cc(OCC)c1-c1ccc(OC)c(N)c1 [Example 32-d] , please.
2

What about CCOc1cc(Cc2cnc(N)nc2N)cc(OCC)c1-n1cccc1 [Epiroprim, reference compound] ?
16

----------
# Test system: Staphylococcus aureus 101
# method: MIC against Staphylococcus aureus 101
# Type: cell-based
# condition info: Table 2; Staphylococcus aureus 101, MRSA- and trimethoprim-resistant; clinical isolate; read-out: MIC Sa101
Measured MIC values are reported for all entries that follow.
Remember to put the unit after the number in your answer.

Field: example entries. Status: answers known.
CCOc1cc(Cc2cnc(N)nc2N)cc(OCC)c1-c1ccc(CN2CCCC2)c(F)c1; 8 µg/mL
CCOc1cc(Cc2cnc(N)nc2N)cc(OCC2CCC2)c1-c1ccc(O)cc1; 2 µg/mL
CCOc1cc(Cc2cnc(N)nc2N)cc(OCC)c1-c1cccc(O)c1; 4 µg/mL

// below: MIC requested for another compound
Fill blank: measured MIC of the compound CCOc1cc(Cc2cnc(N)nc2N)cc(OCCC2CC2)c1-c1ccc(O)cc1 is ____.
4 µg/mL

----------
# assayed target: purified DHFR of strain Sp1/1 of Streptococcus pneumoniae (Streptococcus pneumoniae serotype 4)
# Sequence (Q54801 whole entry I100L, form open): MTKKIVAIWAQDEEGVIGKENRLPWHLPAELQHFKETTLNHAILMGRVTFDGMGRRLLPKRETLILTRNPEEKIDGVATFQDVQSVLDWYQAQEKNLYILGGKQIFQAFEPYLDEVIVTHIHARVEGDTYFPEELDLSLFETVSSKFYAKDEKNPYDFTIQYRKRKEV
# Assay type: biochemical
# condition info: Table 2; IC50 against purified DHFR of strain Sp1/1
Reported values of IC50 for individual entries
Please state the value followed by its unit.

For orientation, consider the following solved cases.
CCOc1cc(Cc2cnc(N)nc2N)cc(OS(=O)(=O)N(C)CC)c1-c1ccc(N)cc1; 2.3 nM
CCOc1cc(Cc2cnc(N)nc2N)cc(OCC)c1-c1ccc(CN2CCOCC2)nc1; 65 nM
CCOc1cc(Cc2cnc(N)nc2N)cc(OC(C)C)c1-c1ccc(OC)cc1; 140 nM

Proceed to the following item.
# IC50 lookup, item CCOc1cc(Cc2cnc(N)nc2N)cc(OS(=O)(=O)CC(C)C)c1-c1ccc(OC)c(N)c1
0.68 nM

----------
This listing pairs molecules with measured pIC50.
# assayed target: purified DHFR of strain 157/4696 of Staphylococcus aureus (Staphylococcus aureus)
# Sequence (P13955 whole entry): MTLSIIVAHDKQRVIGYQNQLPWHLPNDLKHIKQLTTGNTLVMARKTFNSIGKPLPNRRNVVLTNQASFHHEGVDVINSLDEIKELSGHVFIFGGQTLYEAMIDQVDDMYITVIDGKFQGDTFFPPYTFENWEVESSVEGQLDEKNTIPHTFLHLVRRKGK
# method: biochemical
Schema: pIC50 number; meaning minus log10 of the concentration expressed in molar units.

Worked examples, 7 molecules total:
CCOc1cc(Cc2cnc(N)nc2N)cc(OCC)c1-c1ccc(SC)nc1; 5.68
CCOc1cc(Cc2cnc(N)nc2N)cc(OS(=O)(=O)N2CCOCC2)c1-c1ccc(O)cc1; 7.02
CCOc1cc(Cc2cnc(N)nc2N)cc(OS(=O)(=O)N(C)C)c1-c1ccc(CN2CCOCC2)cc1; 6.80
CCOc1cc(Cc2cnc(N)nc2N)cc(OCC(C)(C)CO)c1-c1ccc(O)cc1; 6.10
CCOc1cc(Cc2cnc(N)nc2N)cc(OS(=O)(=O)CC(C)(C)C)c1-c1cccc(N)c1; 6.66
CCOc1cc(Cc2cnc(N)nc2N)cc(OCC)c1-c1ccc(N)c(F)c1; 5.49
CCOc1cc(Cc2cnc(N)nc2N)cc(OS(=O)(=O)C2CC2)c1-c1ccc(C)c(N)c1; 7.01

Which pIC50 reading was recorded for the molecule CCOc1cc(Cc2cnc(N)nc2N)cc(OS(=O)(=O)CC(C)C)c1-c1ccc(OC)c(N)c1 ?
7.18

----------
# System: Staphylococcus aureus 101
# method: MIC against Staphylococcus aureus 101
# Format: cell-based
# condition info: Table 2; Staphylococcus aureus 101, MRSA- and trimethoprim-resistant; clinical isolate; read-out: MIC Sa101
The following molecules are listed with their measured MIC values.
Form entry: value (mg/L) — number only.

CCOc1cc(Cc2cnc(N)nc2N)cc(OCC)c1-c1cccc(N(C)C)c1; 8
CCOc1cc(Cc2cnc(N)nc2N)cc(OS(=O)(=O)N2CCCC2)c1-c1ccc(O)cc1; 4
CCOc1cc(Cc2cnc(N)nc2N)cc(OS(=O)(=O)C(C)CC)c1-c1ccc(NCCO)cc1 (centres unmarked); 4
CCOc1cc(Cc2cnc(N)nc2N)cc(OS(=O)(=O)N2CCOCC2)c1-c1ccc(O)cc1; 8
CCOc1cc(Cc2cnc(N)nc2N)cc(OS(=O)(=O)CC)c1-c1cccc(N)c1; 2

Quick check: MIC of CCCS(=O)(=O)Oc1cc(Cc2cnc(N)nc2N)cc(OCC)c1-c1ccc2c(c1)OCO2 ?
4

Now consider CCOc1cc(Cc2cnc(N)nc2N)cc(OCC(C)(C)COC)c1-c1ccc(OC)cc1 .
8

For CCOc1cc(Cc2cnc(N)nc2N)cc(OCC)c1-c1ccc(CN2CCC(=O)N2)cc1 then?
8

----------
# Tested on: Staphylococcus aureus 101
# method: MIC against Staphylococcus aureus 101
# Format: cell-based
# condition info: Table 2; Staphylococcus aureus 101, MRSA- and trimethoprim-resistant; clinical isolate; read-out: MIC Sa101
metric name: MIC (µg/mL)
Field format: number, assumed µg/mL, no unit text.

Examples from the recorded data:
CCOc1cc(Cc2cnc(N)nc2N)cc(OS(=O)(=O)CC(C)C)c1-c1ccc(N)c(F)c1 [Example 36-b]; 8
CCOc1cc(Cc2cnc(N)nc2N)cc(OCC)c1-c1ccc(N)c(OC)c1 [Example 04-l]; 8
CCOc1cc(Cc2cnc(N)nc2N)cc(OCC)c1-c1ccc2ncccc2c1 [Example 04-m]; 8
CCOc1cc(Cc2cnc(N)nc2N)cc(OS(=O)(=O)N(C)C)c1-c1ccc(S(C)(=O)=O)cc1 [Example 60-]; 4
CCOc1cc(Cc2cnc(N)nc2N)cc(OCC)c1-c1ccc(C#N)cc1 [Example 04-a]; 8
CCOc1cc(Cc2cnc(N)nc2N)cc(OC2CCCC2)c1-c1ccc2c(c1)OCO2 [Example 10-d]; 4
CCOc1cc(Cc2cnc(N)nc2N)cc(OS(=O)(=O)N(C)C2CC2)c1-c1ccc(N)c(C)c1 [Example 27-c]; 1

I'd like to know its MIC. The molecule in question is CCOc1cc(Cc2cnc(N)nc2N)cc(OCC2CCC2)c1-c1ccc2c(c1)OCO2 [Example 10-a]
8

All figures here come from patent US6821980B1.
